Consider the following compounds; for each one, report its pIC50.
Scale: negative log10 of molar concentration, which is what pIC50 denotes.

Find the measured pIC50: item O=C1N(CCCCN2C(=O)C(O)(c3c[nH]c4ccccc34)c3ccccc32)c2ccccc2C1(O)c1c[nH]c2ccccc12 (stereo not drawn) , target or system Cholinesterase (Equus caballus).
4.93

Quick check: pIC50 on Cholinesterase (Equus caballus), item "O=C1C(=O)N(CCCCN2C(=O)C(=O)c3ccccc32)c2ccccc21" ?
4.46

Please state recorded pIC50 (tested on Cholinesterase (Equus caballus)) of O=C1N(CCCCCCN2C(=O)C(O)(c3c[nH]c4ccccc34)c3ccccc32)c2ccccc2C1(O)c1c[nH]c2ccccc12 (stereo not drawn)
4.85

Hi! What's the reported pIC50 for O=C1N(CCCN2C(=O)C(O)(c3c[nH]c4ccccc34)c3ccccc32)c2ccccc2C1(O)c1c[nH]c2ccccc12 (stereo not drawn) on Cholinesterase (Equus caballus)?
5.19

Lab note: need pIC50 for O=C1Nc2ccccc2C1(O)c1c[nH]c2ccccc12 (stereo not drawn) on Cholinesterase (Equus caballus), anyone have it?
3.45

----------
What follows is a collection of IC50 values obtained with Cholinesterase (Equus caballus, UniProt P81908).
Sequence (P81908 whole entry): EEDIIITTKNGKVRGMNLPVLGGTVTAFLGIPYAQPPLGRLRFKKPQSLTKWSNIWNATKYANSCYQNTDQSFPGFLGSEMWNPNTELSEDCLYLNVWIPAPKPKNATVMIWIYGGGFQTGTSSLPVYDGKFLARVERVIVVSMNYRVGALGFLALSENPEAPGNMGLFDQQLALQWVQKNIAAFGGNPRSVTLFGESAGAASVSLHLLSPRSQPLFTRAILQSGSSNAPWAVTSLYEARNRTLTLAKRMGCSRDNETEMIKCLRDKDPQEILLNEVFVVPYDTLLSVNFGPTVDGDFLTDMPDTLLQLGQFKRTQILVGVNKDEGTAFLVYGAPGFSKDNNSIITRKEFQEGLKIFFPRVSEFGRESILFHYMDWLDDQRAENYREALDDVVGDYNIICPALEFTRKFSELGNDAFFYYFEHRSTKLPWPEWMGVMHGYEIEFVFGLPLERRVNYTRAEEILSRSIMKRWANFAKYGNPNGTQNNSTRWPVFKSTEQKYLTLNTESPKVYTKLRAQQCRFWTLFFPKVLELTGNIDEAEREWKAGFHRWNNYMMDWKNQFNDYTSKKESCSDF
// return numeric value only (unit: µM, not printed)

Consider the compound shown here: O=C1N(CCCCCCCN2C(=O)C(O)(c3c[nH]c4ccccc34)c3ccccc32)c2ccccc2C1(O)c1c[nH]c2ccccc12 (configuration not stated) What is its recorded IC50?
13.2

I have this compound here, "O=C1C(=O)N(CCCCCN2C(=O)C(=O)c3ccccc32)c2ccccc21" , and I need its recorded IC50.
7.56

Item under review: "O=C1C(=O)N(CCCCCCCN2C(=O)C(=O)c3ccccc32)c2ccccc21" . Reported IC50?
3.2

----------
Provide the reported pIC50 of each item.
pIC50: −log10 of the molar value.

Form field: pIC50 recorded for O=C1N(CCCCCCCCN2C(=O)C(O)(c3c[nH]c4ccccc34)c3ccccc32)c2ccccc2C1(O)c1c[nH]c2ccccc12 (stereo not drawn) with Cholinesterase (Equus caballus) (enter value)
< 4.60

Please tell me: pIC50 of "O=C1C(=O)N(CCCCCCN2C(=O)C(=O)c3ccccc32)c2ccccc21" , system Cholinesterase (Equus caballus)?
< 4.30

Value wanted: pIC50 (Cholinesterase (Equus caballus)) of entry O=C1N(CCN2C(=O)C(O)(c3c[nH]c4ccccc34)c3ccccc32)c2ccccc2C1(O)c1c[nH]c2ccccc12 (stereo not drawn)
< 4.30

----------
Task for the reader: assign each of the following compounds its reported IC50.
Target of assay: Cholinesterase (Equus caballus, UniProt P81908)

IC50 for "O=C1Nc2ccccc2C1=O" ?
> 1000 µM

Give the measured IC50 of "O=C1C(=O)N(CCCN2C(=O)C(=O)c3ccccc32)c2ccccc21" .
> 125 µM

Recorded IC50 of "O=C1C(=O)N(CCCCCCCCN2C(=O)C(=O)c3ccccc32)c2ccccc21" , please.
> 50 µM

Entry under review: "O=C1C(=O)N(CCN2C(=O)C(=O)c3ccccc32)c2ccccc21" . Reported IC50?
> 125 µM
